Each entry below carries its reported GI50.
molecular target: Ba/F3-EGFR wild-type cell line (Homo sapiens); assay: Ba/F3-EGFR wild-type cell proliferation assay (CellTiter Glo, 72 hours); type: cell-based; settings: Table 2, read-out: EGFR WT IC50
Sequence (P00533 whole entry, change not shown): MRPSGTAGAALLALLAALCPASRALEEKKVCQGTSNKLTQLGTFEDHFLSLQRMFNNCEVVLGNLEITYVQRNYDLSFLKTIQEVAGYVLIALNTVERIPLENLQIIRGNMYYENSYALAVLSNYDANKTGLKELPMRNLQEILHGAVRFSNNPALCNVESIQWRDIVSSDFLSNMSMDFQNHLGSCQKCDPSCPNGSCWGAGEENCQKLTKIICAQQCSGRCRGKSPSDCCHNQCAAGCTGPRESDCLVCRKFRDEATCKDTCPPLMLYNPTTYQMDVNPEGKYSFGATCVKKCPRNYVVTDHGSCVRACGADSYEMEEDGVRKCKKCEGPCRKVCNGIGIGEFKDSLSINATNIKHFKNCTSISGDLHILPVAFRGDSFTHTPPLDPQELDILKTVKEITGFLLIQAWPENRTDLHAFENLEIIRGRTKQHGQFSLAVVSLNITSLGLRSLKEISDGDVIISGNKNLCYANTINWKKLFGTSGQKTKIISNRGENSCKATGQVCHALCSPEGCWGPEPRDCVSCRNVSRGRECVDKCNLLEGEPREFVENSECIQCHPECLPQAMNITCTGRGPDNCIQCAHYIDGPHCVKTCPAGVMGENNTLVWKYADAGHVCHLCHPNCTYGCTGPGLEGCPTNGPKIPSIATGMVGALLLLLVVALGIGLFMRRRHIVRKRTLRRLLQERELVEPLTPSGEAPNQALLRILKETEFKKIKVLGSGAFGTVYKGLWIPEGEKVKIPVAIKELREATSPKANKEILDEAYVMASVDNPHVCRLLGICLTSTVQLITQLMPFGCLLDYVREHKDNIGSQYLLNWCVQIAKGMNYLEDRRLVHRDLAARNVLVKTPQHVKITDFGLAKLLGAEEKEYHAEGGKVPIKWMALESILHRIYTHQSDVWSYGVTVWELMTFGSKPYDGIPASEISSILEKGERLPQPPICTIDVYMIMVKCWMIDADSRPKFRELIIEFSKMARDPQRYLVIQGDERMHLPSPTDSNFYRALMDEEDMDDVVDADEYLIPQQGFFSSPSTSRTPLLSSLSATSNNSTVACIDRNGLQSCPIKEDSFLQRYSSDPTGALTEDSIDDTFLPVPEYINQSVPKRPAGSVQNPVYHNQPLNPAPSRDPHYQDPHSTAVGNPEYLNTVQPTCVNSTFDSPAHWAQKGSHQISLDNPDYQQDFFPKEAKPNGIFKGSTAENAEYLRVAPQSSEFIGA

| Cpd smiles | GI50 (nM) |
| --- | --- |
| CCc1cc(Nc2ncc(Br)c(Nc3ccc(-c4cscn4)cc3P(C)(C)=O)n2)c(OC)cc1N1CCC(N2CCN(C)CC2)CC1 | 171 |
| COc1cnn(-c2ccc(Nc3nc(Nc4cc(OC)c(N5CCC(N6CCN(C)CC6)CC5)cc4C)ncc3Br)c(P(C)(C)=O)c2)c1 | 295 |
| COc1cn(-c2ccc(Nc3nc(Nc4cc(-c5cnn(C)c5)c(N5CCN(c6cccnc6)CC5)cc4OC)ncc3Br)c(P(C)(C)=O)c2)cn1 | 113 |
| CCc1cc(Nc2ncc(Br)c(Nc3ccc(-c4ncn(C)n4)cc3P(C)(C)=O)n2)c(OC)cc1N1CCC(N2CCN(C)CC2)CC1 | 559 |
| COc1cnn(-c2ccc(Nc3nc(Nc4cc(C)c(N5CCOCC5)c(OC)c4)ncc3Br)c(P(C)(C)=O)c2)c1 | 150 |
| CCc1cc(Nc2ncc(Cl)c(Nc3ccc(-c4nn(C)cc4C#N)cc3P(C)(C)=O)n2)c(OC)cc1N1CCC(N2CCN(C)CC2)CC1 | 293 |
